Ref: patent US20240270821A1

molecular target: hGcgR (Homo sapiens, UniProt P47871); assay: Functional cAMP activation in the presence of 0.1% casein (no HSA); assay type: cell-based; conditions: in the presence of 0.1% casein (no HSA); geometric mean; read-out: Relative cAMP EC50, hGcgR;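 also: intracellular cAMP rise after 30 min at 37 °C, read by HTRF against a cAMP standard curve, scaled from buffer only (0%) to maximal control ligand response (100%)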
Sequence (P47871 26-477): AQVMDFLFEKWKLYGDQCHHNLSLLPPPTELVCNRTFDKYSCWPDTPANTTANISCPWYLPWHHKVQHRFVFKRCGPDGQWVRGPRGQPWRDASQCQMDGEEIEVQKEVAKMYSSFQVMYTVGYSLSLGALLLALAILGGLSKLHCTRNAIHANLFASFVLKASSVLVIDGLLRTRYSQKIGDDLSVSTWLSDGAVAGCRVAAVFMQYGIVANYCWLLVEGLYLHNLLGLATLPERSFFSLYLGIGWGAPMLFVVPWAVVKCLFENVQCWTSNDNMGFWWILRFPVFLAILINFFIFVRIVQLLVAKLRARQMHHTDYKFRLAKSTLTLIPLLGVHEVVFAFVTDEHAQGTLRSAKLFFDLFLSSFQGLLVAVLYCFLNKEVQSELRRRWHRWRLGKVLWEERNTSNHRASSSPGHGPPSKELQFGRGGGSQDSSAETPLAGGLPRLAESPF
Starred links: 1 amine or outer side, 2 acyl side, 3 side chain; linkers in the order of their positions; H or OH if unused. Non-standard residues stand in square brackets, D forms with d. Groups on a side chain read outwards from the residue. No end group written: not given here. *: point of attachment. C20 diacid = O=C(O)CCCCCCCCCCCCCCCCCCC(=O)*; C18 diacid = O=C(O)CCCCCCCCCCCCCCCCC(=O)*; αMePhe(2-F) = C[C@](N)(Cc1ccccc1F)C(=O)O; γGlu = O=C(O)[C@H](CCC(=O)[*:2])N[*:1]; αMe4Pal = C[C@](N)(Cc1ccncc1)C(=O)O; αMeY = C[C@](N)(Cc1ccc(O)cc1)C(=O)O; Hyp = O=C(O)[C@@H]1C[C@@H](O)CN1; 4Pal = N[C@@H](Cc1ccncc1)C(=O)O; αMeL = CC(C)C[C@](C)(N)C(=O)O; αMeS = C[C@](N)(CO)C(=O)O; Orn = NCCC[C@H](N)C(=O)O; AEEA = NCCOCCOCC(=O)O; Aib = CC(C)(N)C(=O)O
measure.name: EC50
State the result as a value with its unit after it.

Fill in: EC50 of H-Y[Aib]QGT[αMePhe(2-F)]TSDYSILLDKIAAK([AEEA-γGlu-C20 diacid])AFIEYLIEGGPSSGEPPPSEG-NH2 [Example 296] is ___
1.72 nM

Entry H-Y[Aib]QGT[αMePhe(2-F)]TSD[4Pal][αMeS]I[αMeL]LD[Orn]K([AEEA-γGlu-γGlu-C18 diacid])AQ[αMe4Pal]EFI[dE][αMeY]LIEGGPSSGAPPPSGGGE-NH2 [Example 1180] has what EC50?
3.16 nM

Returns the measured EC50 for the input substance. Input: H-Y[Aib]QGTFTSDFS[Orn][αMeL]LDKK([AEEA-AEEA-γGlu-C18 diacid])AQ[Aib]AFIEYLLEGGPSSGAPPPGES-NH2 [Example 118]
7.02 nM

I have this substance here, H-Y[Aib]QGTFTSD[4Pal]SQ[αMeL]LDKK([AEEA-γGlu-C18 diacid])AQ[αMe4Pal]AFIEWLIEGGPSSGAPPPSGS-NH2 [Example 830] , and I need its recorded EC50.
3.21 nM

Please look up its EC50: Y[Aib]QGT[αMePhe(2-F)]TSDYSILLDAQAAK([AEEA-γGlu-C20 diacid])EFIEYLIEGGPSSGEPPPSEG-NH2 [Example 351]
12.1 nM

Would you mind telling me what EC50 value was observed for H-Y[Aib]QGTFTSDFS[Orn][αMeL]LDKK([AEEA-γGlu-γGlu-C18 diacid])AQ[Aib]AFIEYLLE[Aib]GPSSGAPPPSGS-NH2 [Example 192] ?
4.18 nM

Quick check: EC50 of H-Y[Aib]QGTFTSDFS[Orn][αMeL]LDKK([AEEA-γGlu-C18 diacid])AQ[Aib]AFIEYLLEGG[Hyp]SSGAPPPGGS-NH2 [Example 234] ?
7.87 nM

Given the entry Y[Aib]QGTFTSDFS[Orn][αMeL]LDKK([AEEA-AEEA-γGlu-C18 diacid])AQ[Aib]AFIEYLLE[dA]GPSSGEPPPSGS-NH2 [Example 155] , report its measured EC50.
5.68 nM

What EC50 value was documented for this substance, H-Y[Aib]QGTFTSDFSK[αMeL]LDKK([AEEA-γGlu-C20 diacid])AQ[Aib]AFIEYLLAGGPSSGAPPPGGE-NH2 [Example 15] ?
11.1 nM

# query: EC50 of entry H-Y[Aib]QGTFTSD[4Pal]S[Orn][αMeL]LDKK([Glu-γGlu-C18 diacid])AQ[αMe4Pal]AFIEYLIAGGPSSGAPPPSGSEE-NH2 [Example 1060]
9.08 nM

Return reported EC50; argument: H-Y[Aib]QGTFTSDFS[Orn][αMeL]LDKK([AEEA-γGlu-C18 diacid])AQ[αMe4Pal]AFIEYLIE[Aib]GESSGAPPPSGE-NH2 [Example 228]
1.38 nM

# query: EC50 of entry H-Y[Aib]QGTFTSDFS[Orn][αMeL]LDKK([AEEA-γGlu-C20 diacid])AQ[Aib]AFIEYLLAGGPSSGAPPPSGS[AEEA]-NH2 [Example 83]
10.2 nM

###

Molecular target: hGIPR (Homo sapiens, UniProt P48546)
Sequence (P48546 22-466): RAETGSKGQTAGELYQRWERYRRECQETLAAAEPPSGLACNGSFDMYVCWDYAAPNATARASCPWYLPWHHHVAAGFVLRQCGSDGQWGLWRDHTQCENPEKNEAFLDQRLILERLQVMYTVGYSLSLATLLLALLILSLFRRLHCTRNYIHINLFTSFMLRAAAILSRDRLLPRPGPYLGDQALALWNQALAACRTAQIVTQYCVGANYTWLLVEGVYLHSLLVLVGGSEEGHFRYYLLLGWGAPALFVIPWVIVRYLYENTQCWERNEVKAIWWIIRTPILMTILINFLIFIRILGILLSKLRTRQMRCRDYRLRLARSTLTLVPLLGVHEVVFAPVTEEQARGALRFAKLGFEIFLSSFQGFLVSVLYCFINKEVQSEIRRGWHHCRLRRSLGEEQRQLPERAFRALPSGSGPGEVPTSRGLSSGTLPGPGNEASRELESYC
Experiment: Functional cAMP activity in the presence of 1% HSA
Format: cell-based
Conditions: HEK-293 clonal cell line, in the presence of 1% HSA; geometric mean of relative EC50; read-out: cAMP Rel EC50, hGIPR
pEC50: −log10 of the molar value. Starred links: 1 amine or outer side, 2 acyl side, 3 side chain; linkers in the order of their positions; H or OH if unused. Non-standard residues stand in square brackets, D forms with d. Groups on a side chain read outwards from the residue. No end group written: not given here. *: point of attachment. C18 diacid = O=C(O)CCCCCCCCCCCCCCCCC(=O)*; γGlu = O=C(O)[C@H](CCC(=O)[*:2])N[*:1]; αMe4Pal = C[C@](N)(Cc1ccncc1)C(=O)O; αMeY = C[C@](N)(Cc1ccc(O)cc1)C(=O)O; 4Pal = N[C@@H](Cc1ccncc1)C(=O)O; αMeL = CC(C)C[C@](C)(N)C(=O)O; Orn = NCCC[C@H](N)C(=O)O; Dab = NCC[C@H](N)C(=O)O; Aib = CC(C)(N)C(=O)O
Where pEC50 equals or exceeds 8, the correct label is true; where it does not, the label is false.

# check: pEC50 of Y[Aib]QGTFTSD[4Pal]SQ[αMeL]LDKK([γGlu-γGlu-C18 diacid])AQ[αMe4Pal]AFIE[αMe4Pal]LIE[Aib]GPSSGAPPPSGSEE-NH2 [Example 1122] is greater than or equal to 8
true

Record H-Y[Aib]QGTFTSD[4Pal]S[Dab][αMeL]LD[Orn]K([γGlu-γGlu-C18 diacid])AQ[αMe4Pal]AFIE[αMe4Pal]LLAGGPSSGAPPPEGSEE-NH2 [Example 1055] ; criterion: pEC50 no lower than 8. Met?
false

Hi team, for H-Y[Aib]QGTFTSDFS[Orn][αMeL]LD[Orn]K([γGlu-γGlu-C18 diacid])AQ[Aib]AFIE[αMeY]LLEGGPSSGAPPPGGSEE-NH2 [Example 1049] , is the recorded pEC50 at or above 8?
false

Item H-Y[Aib]QGTFTSD[4Pal]S[Orn][αMeL]LD[Orn]K([γGlu-γGlu-C18 diacid])AQ[αMe4Pal][Orn]FIE[αMeY]LLAGGPSSGAPPPSGSEE-NH2 [Example 997] with pEC50 of 8 or above?
false

I'd appreciate it if you could say whether H-Y[Aib]QGTFTSDFS[Orn][αMeL]LD[Orn]K([γGlu-γGlu-C18 diacid])AQ[Aib]AFIEYLLEGGPSSGAPPPGGSEE-NH2 [Example 1048] has pEC50 at least equal to 8.
false

Given the entry H-Y[Aib]QGTFTSDFS[Orn][αMeL]LD[Orn]K([γGlu-γGlu-C18 diacid])AQ[Aib]AFIE[αMe4Pal]LLAGGPSSGAPPPEGSEE-NH2 [Example 1053] , answer whether its pEC50 meets or surpasses 8.
false

Say whether Y[Aib]QGTFTSD[4Pal]SQ[αMeL]LDKK([γGlu-γGlu-C18 diacid])AQ[αMe4Pal]AFIE[αMe4Pal]LIE[Aib]GPSSGAPPPSGEE-NH2 [Example 1121] shows pEC50 of 8 or more.
true

pEC50 >= 8 for H-Y[Aib]QGTFTSDFS[Orn][αMeL]LD[Orn]K([γGlu-γGlu-C18 diacid])AQ[Aib]AFIE[αMe4Pal]LLEGGPSSGAPPPGGSEE-NH2 [Example 1050] ?
false

Given the entry H-Y[Aib]QGTFTSDFS[Orn][αMeL]LDKK([γGlu-γGlu-C18 diacid])AQ[Aib]AFIEYLLAGGPSSGAPPPEGSEE-NH2 [Example 1051] , answer whether its pEC50 meets or surpasses 8.
false

I'd appreciate it if you could say whether H-Y[Aib]QGTFTSD[4Pal]SQ[αMeL]LD[Orn]K([γGlu-γGlu-C18 diacid])AQ[αMe4Pal]AFIEYLIAGGPSSGEPPPSGTEEE-NH2 [Example 986] has pEC50 at least equal to 8.
false
